Experiment: Solubility at 37° C. in buffers and biorelevant media, XRPD of residual solid
Assay type: physicochemical
Conditions: Water, 37° C., 24 h
attribute.measured: pH of supernatant at 24 h

[[record]]
compound = "CCOc1cc(C(=O)N(C)Cc2cnc(CO)c3cn[nH]c23)ccc1-c1cc(F)cc(F)c1.O=P(O)(O)O [Phosphate salt Pattern A]"
attribute_measured = "pH of supernatant at 24 h"
result = "(2.6)"

[[record]]
compound = "CCOc1cc(C(=O)N(C)Cc2cnc(CO)c3cn[nH]c23)ccc1-c1cc(F)cc(F)c1.Cl [HCl salt Pattern A]"
attribute_measured = "pH of supernatant at 24 h"
result = "(2.5)"

[[record]]
compound = "CCOc1cc(C(=O)N(C)Cc2cnc(CO)c3cn[nH]c23)ccc1-c1cc(F)cc(F)c1 [Free form Pattern A]"
attribute_measured = "pH of supernatant at 24 h"
result = "(6.3)"


----------
Test: Solubility at 37° C. in buffers and biorelevant media, XRPD of residual solid
Format: physicochemical
Conditions: thermodynamic from solid; FaSSIF-v1, pH 6.5, 37° C., 2 h
Would you mind telling me the reported solubility at 2 h of each entry?
Give bare numbers, in µg/mL.

Worked cases, answers included:
[[record]]
compound = "CCOc1cc(C(=O)N(C)Cc2cnc(CO)c3cn[nH]c23)ccc1-c1cc(F)cc(F)c1.Cl [HCl salt Pattern A]"
display_unit = "µg/mL"
numeric_readout = 11.8

[[record]]
compound = "CCOc1cc(C(=O)N(C)Cc2cnc(CO)c3cn[nH]c23)ccc1-c1cc(F)cc(F)c1 [Free form Pattern A]"
display_unit = "µg/mL"
numeric_readout = 14.5

[[record]]
compound = "CCOc1cc(C(=O)N(C)Cc2cnc(CO)c3cn[nH]c23)ccc1-c1cc(F)cc(F)c1.O=P(O)(O)O [Phosphate salt Pattern A]"
display_unit = "µg/mL"
numeric_readout = 8.4


Next item in the queue.
get_value(item= CCOc1cc(C(=O)N(C)Cc2cnc(CO)c3cn[nH]c23)ccc1-c1cc(F)cc(F)c1.[Na] [Sodium salt Pattern A] , readout=solubility at 2 h) returns 10.2

----------
Test: Hygroscopicity by dynamic vapor sorption (DVS) at 25° C.
Type: physicochemical
Conditions: DVS 25° C., 10% RH, 2nd sorption
attribute.measured: Sorp. (%)
Give bare numbers, in %.

Worked cases, answers included:
[[record]]
compound = "CCOc1cc(C(=O)N(C)Cc2cnc(CO)c3cn[nH]c23)ccc1-c1cc(F)cc(F)c1 [Free form Pattern A]"
display_unit = "%"
numeric_readout = 0.09

[[record]]
compound = "CCOc1cc(C(=O)N(C)Cc2cnc(CO)c3cn[nH]c23)ccc1-c1cc(F)cc(F)c1.[Na] [Sodium salt Pattern A]"
display_unit = "%"
numeric_readout = 0.14


Next item in the queue.
get_value(item= CCOc1cc(C(=O)N(C)Cc2cnc(CO)c3cn[nH]c23)ccc1-c1cc(F)cc(F)c1.O=P(O)(O)O [Phosphate salt Pattern A] , readout=Sorp. (%)) returns 0.09

Data provenance is patent US20250084080A1.
